From: patent US12152019B2

target: UniProtKB P14902; experiment: IDO1 Human Whole Blood Assay; type: cell-based; details: Human Whole Blood Potency, IC50 (nM), LPS and IFNγ 100 ng/mL, overnight (18 h), kynurenine by LC/MS/MS
measurement-label: IC50 (nM)
Could you give me the number in nM? Just the number is fine.

response.value for Cc1cccc(N2CCC(CCn3nc(C(=O)N4CCCC4)c4ccccc43)CC2)c1C (field: IC50) = 1030

====

target: IDO1 (Homo sapiens, UniProt P14902); test: IDO1 Human Whole Blood Assay; type: cell-based; details: LPS and IFNγ 100 ng/mL, overnight (18 h), kynurenine by LC/MS/MS, read-out: Human Whole Blood Potency, IC50
Sequence (P14902 whole entry): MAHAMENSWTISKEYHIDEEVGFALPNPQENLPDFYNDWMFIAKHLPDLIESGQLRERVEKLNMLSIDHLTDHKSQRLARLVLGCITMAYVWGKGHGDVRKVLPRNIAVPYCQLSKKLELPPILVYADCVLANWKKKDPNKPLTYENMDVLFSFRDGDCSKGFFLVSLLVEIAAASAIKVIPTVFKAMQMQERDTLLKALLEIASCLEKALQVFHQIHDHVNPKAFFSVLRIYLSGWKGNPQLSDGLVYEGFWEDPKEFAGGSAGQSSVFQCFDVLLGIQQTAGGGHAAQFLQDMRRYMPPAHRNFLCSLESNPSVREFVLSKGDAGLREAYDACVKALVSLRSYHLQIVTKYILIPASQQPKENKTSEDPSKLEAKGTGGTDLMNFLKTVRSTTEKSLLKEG
I'd appreciate it if you could supply IC50 values for the items below.
Could you give me the number in nM? Just the number is fine.

response.value for CC(=O)NC1CCN(C(=O)c2nn(C[C@@H]3C[C@@H](Oc4ccc(Cl)cn4)CCO3)c3c2CC(F)(F)CC3)CC1 (field: IC50) = 136

response.value for Cc1cccc(N2CCC(CCn3nc(C(=O)N4CCC(O)CC4)c4c3CCC4)CC2)c1C (field: IC50) = 341

response.value for CC(=O)NC1CCN(C(=O)c2nn(CCC3CCN(c4nccc(C(F)(F)F)c4F)CC3)c3c2CCCC3)CC1 (field: IC50) = 935

response.value for CC(=O)NC1CCN(C(=O)c2nn(CCC3CCN(c4cccc(Cl)c4C)CC3)c3c2CCCC3)CC1 (field: IC50) = 286

response.value for Cc1ccc(Cl)c(O[C@H]2CC[C@@H](CCn3nc(C(=O)N4CCC(F)(CO)CC4)c4c3CCC4)CC2)c1 (field: IC50) = 538

response.value for Cc1cccnc1O[C@H]1CC[C@@H](CCn2nc(C(=O)N3CCC(O)CC3)c3c2C[C@H](C(F)F)CC3)CC1 (field: IC50) = 736

response.value for CC(=O)NC1CCN(C(=O)c2nn(CCN3CCN(c4cccc(Cl)c4C)CC3)c3c2[C@@H]2C[C@@H]2C3)CC1 (field: IC50) = 261

response.value for Cc1cccc(C2CCC(CCn3nc(C(=O)N4CCC(O)CC4)c4c3CCC4)CC2)c1C (single isomer, unassigned) [Example 95] (field: IC50) = 166

response.value for CC(=O)NC1CCN(C(=O)c2nn(CCC3CCN(c4ccc(F)c(F)c4C)CC3)c3c2CCCC3)CC1 (field: IC50) = 437
